- System: SGK3
- cond: concentration: 1 μM, replicates: in singlicate; n = 1;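 note: KINOMEscan kinase panel screen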
readoutLabel: %Inh (%)
Give bare numbers, in %.

| compound | unitAbbreviation | %Inh |
| --- | --- | --- |
| O=C(Nc1cccc(-c2nn3ncccc3c2-c2ccnc(Nc3ccccc3)n2)c1)c1c(F)cccc1F | % | 4 |
| COc1cc(Nc2nccc(N3CCC(NC(=O)Nc4cccc(C(C)=O)c4)C3)n2)cc(OC)c1OC (stereo not shown) | % | 0 |

Go through the list and state %Inh for each entry.
1. COc1cccc(C(=O)Nc2cccc(Oc3ccc4nc(NC(=O)C5CC5)cn4n3)c2)c1
2. COc1ccc(Nc2nccc(N3CCC(NC(=O)Nc4cccc(OC)c4)C3)n2)cc1 (stereo not shown)

1: 23; 2: 0

* * *

- Tested on: MKK7
- cond: concentration: 1 μM, replicates: in singlicate; n = 1
readoutLabel: %Inh (%)
Answers are plain numbers, in %.

Field: example entries. Status: answers known.
| compound | %Inh [%] |
| --- | --- |
| Cl.Cl.NCC(C(=O)Nc1cc(Br)c(-c2ccnc3[nH]ccc23)s1)c1ccccc1 (stereo not shown) | 0 |
| Cn1cc(-c2ccc3c(c2)CCN3C(=O)Cc2cccc(F)c2)c2c(N)ncnc21 | 32 |
| c1ccc(-c2n[nH]cc2Nc2ccnc3ccccc23)nc1 | 0 |
| CC(C)c1nc(-c2cccc(NS(=O)(=O)c3c(F)cccc3F)c2F)c(-c2ccnc(Nc3ccc(N4CCOCC4)nc3)n2)s1 | 0 |

Go through the list and state %Inh for each entry.
1. Cc1ccc(C(=O)Nc2ccc(Nc3ccnc4cc(-c5nccs5)ccc34)cc2O)cc1.Cl
2. CN(C)Cc1ccc(-c2ccc3c(Nc4ccc(Oc5ccccn5)cc4)ccnc3c2)o1
3. COc1cc(Nc2ncc3c(C)nc(-c4cc5ccccc5[nH]4)n3n2)cc(OC)c1OC
4. Cc1cccc(Nc2nc(N[C@H]3CCNC3)ncc2C(N)=O)c1.Cl
5. COc1ccc(-c2coc3ccc(-c4nnc(SCc5ccc(OC)c(C(F)(F)F)c5)o4)cc23)cc1
6. Cl.c1ccc(-c2ccc3c(Nc4ccc5[nH]ncc5c4)ccnc3c2)nc1
7. CN(C)S(=O)(=O)c1cc(-c2ccc3nccc(-c4cccc(S(N)(=O)=O)c4)c3c2)cnc1N
8. COc1cc(Nc2nccc(N3CCC(NC(=O)c4cc5ccccc5s4)C3)n2)cc(OC)c1OC (stereo not shown)

[0, 0, 0, 4, 14, 0, 0, 38]

# query: %Inh of entry Cn1cc(-c2ccc3c(c2)CCN3C(=O)Cc2cccc(Cl)c2)c2c(N)ncnc21
28

* * *

I'd appreciate it if you could supply %Inh values for the items below.
- System: DAPK1
- cond: concentration: 1 μM, replicates: in singlicate; n = 1
Numbers only, in %.

| compound | observedMeasurement |
| --- | --- |
| COc1cccc(C(=O)Nc2cccc(Oc3ccc4nc(NC(=O)C5CC5)cn4n3)c2)c1 | 0 |
| O=c1[nH]cc(-c2ccc(N3CCOCC3)cc2)c2sc(-c3cn[nH]c3)cc12 | 37 |
| CCS(=O)(=O)c1ccc(OC)c(Nc2nccc(-c3c(-c4cccc(NC(=O)c5c(F)cccc5F)c4)nn4ncccc34)n2)c1 | 9 |
| Cc1ccc(C)c(NC(=O)NC2CCN(c3ccnc(Nc4ccc(F)cc4)n3)C2)c1 (stereo not shown) | 0 |
| Fc1ccc(-c2ncn(C3CCNCC3)c2-c2ccnc(Oc3ccc(-c4ccccc4)cc3)n2)cc1 | 14 |

Go through the list and state %Inh for each entry.
1. COc1cc2c(cc1OCCN1CCNCC1)ncc1c3ccc(C#N)cc3[nH]c21
2. CSc1cccc2c(-c3ccncn3)c(-c3ccc(F)cc3)nn12
3. O=C(Nc1n[nH]c2nc(-c3ccc(O)cc3)ccc12)C1CC1
4. O=C(Nc1cccc(-c2nn3ccccc3c2-c2ccnc(Nc3cccc(F)c3)n2)c1)c1c(F)ccc(F)c1Cl

1. 14
2. 0
3. 76
4. 0

Go through the list and state %Inh for each entry.
1. Clc1ccc(-c2nn3ncccc3c2-c2ccnc(Nc3ccc4c(c3)OCCO4)n2)cc1
2. Cl.NC(=O)c1cccc(Nc2nccc(Nc3ccc(Oc4c(Cl)cccc4Cl)c(Cl)c3)n2)c1
3. COc1cc(Nc2nccc(N3CCC(NC(=O)Nc4cccc(C(C)=O)c4)C3)n2)cc(OC)c1OC (stereo not shown)
4. O=C(NC1CCN(c2ccnc(Nc3ccc(F)cc3)n2)C1)c1cc2ccccc2s1 (stereo not shown)
5. Cn1cc(-c2[nH]c3cc(NC(=O)[C@H](N)C4CCCCC4)cc4c3c2C=NNC4=O)cn1
6. Cl.c1ccc(-c2ccc3c(Nc4ccc5[nH]ncc5c4)ccnc3c2)nc1
7. O=C(O)C(F)(F)F.O=C(O)C(F)(F)F.O=c1[nH]ccc2nc(N[C@@H]3CCCNC3)nc(Nc3ccc(S(=O)(=O)N4CCOCC4)cc3)c12
8. COc1cccc(NC(=O)NC2CCN(c3ccnc(Nc4cc(OC)c(OC)c(OC)c4)n3)C2)c1 (stereo not shown)

1. 0
2. 24
3. 5
4. 19
5. 99.8
6. 15
7. 98.2
8. 5

Go through the list and state %Inh for each entry.
1. COc1ccc(CNC(=O)NC2CCN(c3ccnc(Nc4ccc(F)cc4)n3)CC2)cc1
2. COc1cc(Nc2nccc(-c3c(-c4cccc(NC(=O)c5c(F)cccc5F)c4)nn4ncccc34)n2)cc(OC)c1OC

[0, 0]

Go through the list and state %Inh for each entry.
1. Cc1ccc(C(=O)N2CC[C@@H](O)C2)cc1-n1c(C)cc(OCc2ccc(F)cc2F)c(Br)c1=O
2. O=C(Nc1n[nH]c2cc(-c3ccoc3)ccc12)C1CC1

1. 3
2. 6

Go through the list and state %Inh for each entry.
1. CN1CCN(CCCNc2nccc(-c3c(-c4ccc(F)cc4)nn4cc(C(F)(F)F)ccc34)n2)CC1
2. CCn1c(-c2nonc2N)nc2c(C#CC(C)(C)O)nc(OC[C@H](N)c3ccccc3)cc21
3. Cl.Cl.NCC(NC(=O)c1cc(-c2ccccc2)c(-c2ccnc3[nH]ccc23)s1)c1ccccc1 (stereo not shown)
4. Nc1ncc(-c2ccc3nccc(-c4ccncc4)c3c2)cc1S(=O)(=O)N1CCOCC1
5. Cc1occc1-c1ncc(OC[C@@H](N)Cc2c[nH]c3ccccc23)cc1-c1ccc2[nH]nc(C)c2c1.O=C(O)C(F)(F)F
6. Cl.Cl.NCC(NCc1ccc(-c2ccnc3[nH]ccc23)s1)c1ccccc1 (stereo not shown)
7. Nc1ncnc2c1nc(-c1ccccc1)n2-c1ccccc1

[0, 0, 0, 0, 0, 67, 0]

* * *

- Tested on: SRMS
- cond: concentration: 1 μM, replicates: in singlicate; n = 1
readoutLabel: %Inh (%)
One number for each entry, in %.

Go through the list and state %Inh for each entry.
1. O=C(Nc1n[nH]c2cc(-c3ccoc3)ccc12)C1CC1 [SB-738481]
2. CNC(=O)c1ccccc1Nc1nc(Nc2ccc(N3CCOCC3)cc2)ncc1Cl.Cl [GSK1576028]

[19, 67]

Go through the list and state %Inh for each entry.
1. c1ccc(-c2n[nH]cc2Nc2ccnc3ccccc23)nc1 [GW694077]
2. O=C(Nc1cccc(Oc2ccc3nc(NC(=O)C4CC4)cn3n2)c1)c1ccccc1C(F)(F)F
3. CN1CCN(CCCNc2nccc(-c3c(-c4ccc(F)cc4)nn4cc(C(F)(F)F)ccc34)n2)CC1 [GW621581]
4. Cl.c1ccc(-c2ccc3c(Nc4ccc5[nH]ncc5c4)ccnc3c2)nc1 [GW440137]
5. CN(C)S(=O)(=O)c1cc(-c2ccc3nccc(-c4cccc(S(N)(=O)=O)c4)c3c2)cnc1N [GSK1669921]
6. CCCCc1nn2ncccc2c1-c1ccnc(Nc2ccc(N3CCN(C)CC3)cc2)n1 [GW684941]
7. Cc1cccc(NC(=O)Nc2ccc(Oc3ncnc4ccn(C)c34)cc2)c1

1: 0; 2: 0; 3: 0; 4: 0; 5: 0; 6: 0; 7: 0

* * *

I'd appreciate it if you could supply %Inh values for the items below.
- Test system: SRMS
- cond: concentration: 1 μM, replicates: in singlicate; n = 1
Give bare numbers, in %.

Field: example entries. Status: answers known.
| molecule | %Inh / % |
| --- | --- |
| COc1cc(Nc2nccc(N3CCC(NC(=O)Nc4cccc(C(C)=O)c4)C3)n2)cc(OC)c1OC (centres unmarked) [GSK1379753] | 0 |
| C[C@@H]1CC[C@@H](C(=O)Nc2ccccc2)CN1c1cc(-c2ccc3c(N)n[nH]c3c2)nc(N)n1 [GSK2286062] | 0 |
| COc1ccc(CNC(=O)NC2CCN(c3ccnc(Nc4ccc(F)cc4)n3)CC2)cc1 [GSK1379788] | 0 |

Go through the list and state %Inh for each entry.
1. CCS(=O)(=O)c1ccc(OC)c(Nc2nccc(-c3c(-c4cccc(NC(=O)c5c(F)cccc5F)c4)nn4ncccc34)n2)c1 [GSK326180]
2. O=C(NC1CCN(c2ccnc(Nc3ccc(F)cc3)n2)C1)c1cc2ccccc2s1 (centres unmarked) [GSK1379716]
3. Nc1ncc(-c2ccc3nccc(-c4ccncc4)c3c2)cc1S(=O)(=O)N1CCOCC1 [GSK1627798]
4. Fc1ccc(-c2ncn(C3CCNCC3)c2-c2ccnc(Oc3ccc(-c4ccccc4)cc3)n2)cc1 [SB-245391]
5. CSc1cccc2c(-c3ccncn3)c(-c3ccc(F)cc3)nn12 [GW514786]

1: 99.3; 2: 0; 3: 0; 4: 3; 5: 0

Go through the list and state %Inh for each entry.
1. c1ccc(-c2cnc3nccnn23)cc1 [AH20685]
2. COc1ccc(Nc2nccc(NCCNC(=O)c3cc4ccccc4s3)n2)cc1 [GSK1379896]
3. COc1cccc(-c2ccc3c(NC(=O)C4CC4)n[nH]c3n2)c1 [SB-710903]
4. FC(F)(F)c1ccc(/C=C/c2cncnc2Nc2ccc3[nH]c(Cc4ccccc4)nc3c2)cc1 [GW709199]
5. Nc1ncc(-c2cccnc2)c2scc(-c3ccc4c(c3)CCN4C(=O)Cc3ccccc3)c12 [GSK683281]
6. COCCOCCOc1cc2ncc3c4ccc(C#N)cc4[nH]c3c2cc1OC
7. Cc1cccc(Nc2nc(N[C@H]3CCNC3)ncc2C(N)=O)c1.Cl [GSK2197149]

1. 0
2. 0
3. 0
4. 0
5. 8
6. 0
7. 0

Go through the list and state %Inh for each entry.
1. O=C(Nc1n[nH]c2nc(-c3ccc(O)cc3)ccc12)C1CC1 [SB-710363]
2. O=C(Nc1cccc(-c2nn3ccccc3c2-c2ccnc(Nc3cccc(F)c3)n2)c1)c1c(F)ccc(F)c1Cl [GSK357952]

[2, 28]
